- measured.on: HCPTP-B (Homo sapiens)
- assay.notes: pNPP phosphatase inhibition assay, HCPTP-B
- Assay type: biochemical
- condition.description: read-out: IC50 HCPTP-B; general phosphatase inhibitor, pH not stated
observation.type: IC50 (µM)

* [O]=[V]([OH])([OH])[OH] [orthovanadate, reference compound] | 61

* * *

- measured.on: HCPTP-A (Homo sapiens, UniProt P24666)
- Sequence (P24666 1-158): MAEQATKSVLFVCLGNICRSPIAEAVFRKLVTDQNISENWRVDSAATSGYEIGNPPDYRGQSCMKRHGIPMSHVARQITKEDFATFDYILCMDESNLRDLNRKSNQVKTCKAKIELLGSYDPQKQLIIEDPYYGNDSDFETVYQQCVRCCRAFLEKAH
- assay.notes: pNPP phosphatase inhibition assay, HCPTP-A
- Assay type: biochemical
- condition.description: IC50 HCPTP-A pH 7, pH 7 (Table II)
observation.type: IC50 (µM)

• O=C(O)CC1NCc2cc3ccccc3nc21 (stereo not shown) = 4.8

* * *

Each item that follows carries a reported pIC50.
- measured.on: UniProtKB P24666
- assay.notes: pNPP phosphatase inhibition assay, HCPTP-A
- Type: biochemical
- condition.description: IC50 HCPTP-A pH 5, pH 5 (Table II)
pIC50: −log10 of the molar value.
observation.type: pIC50

* NC(Cc1ccccc1)P(=O)(O)O (stereo not drawn) | 3.65
* O=C1C2=C(CC=CC2)C(=O)c2c(Nc3ccc(S(=O)(=O)O)cc3)ccc(Nc3ccccc3)c21 | 5.26
* O=S(=O)(O)c1ccc2c(/N=N/c3c(O)ccc4ccccc34)cccc2c1 | 5.26

* * *

Each item that follows carries a reported pIC50.
- measured.on: HCPTP-A (Homo sapiens, UniProt P24666)
- assay.notes: pNPP phosphatase inhibition assay, HCPTP-A
- Type: biochemical
- condition.description: read-out: IC50 HCPTP-A pH 7; pH 7 (Table II)
pIC50: −log10 of the molar value.
observation.type: pIC50

* O=C(O)/C(Cc1ccnc2ccccc12)=N/O | 4.14
* O=C(O)C1CSC2(CCN(c3ccccc3)CC2)N1 (centres unmarked) | 5.40
* O=C1C2=C(CC=CC2)C(=O)c2c(Nc3ccc(S(=O)(=O)O)cc3)ccc(Nc3ccccc3)c21 | 5.44
* NC(Cc1c[nH]c2cc([N+](=O)[O-])ccc12)C(=O)O (centres unmarked) | 4.29
* NC(Cc1cc(Br)c(O)c(Br)c1)C(=O)O (centres unmarked) | 5.34

* * *

Each item that follows carries a reported inhibition at 100 µM.
- measured.on: HCPTP-A (Homo sapiens)
- assay.notes: pNPP phosphatase inhibition assay, HCPTP-A
- Format: biochemical
- condition.description: pH 5, read-out: inhibition of HCPTP-A activity, 100 μM compound, pH 5
observation.type: inhibition at 100 µM

• CC12CCC(=O)C=C1CCC1C2CCC2(C)C(C(=O)Cn3cnc4c(=S)nc[nH]c43)CCC12 (stereo not drawn) [Compound 114792] = ≥ 10%
• N=C(Cc1ccccc1)NCC(=O)O [Compound 27895] = ≥ 10%
• NC(c1ccccc1)P(=O)(O)O (stereo not drawn) [Compound 133811] = ≥ 10%
• O=C1C2=C(CC=CC2)C(=O)c2c(Nc3ccc(S(=O)(=O)O)cc3)ccc(Nc3ccccc3)c21 [Compound 128437] = ≥ 10%
• O=S(=O)(O)c1ccc2c(/N=N/c3c(O)ccc4ccccc34)cccc2c1 [Compound 45576] = ≥ 10%
• NC(Cc1ccc2oc3cc(=O)c4ccccc4c-3nc2c1)C(=O)O (stereo not drawn) [Compound 643735] = ≥ 10%
• O=C(O)/C(Cc1ccnc2ccccc12)=N/O [Compound 85359] = ≥ 10%
• Cc1ncc(OP(=O)(O)O)c(C)c1O [Compound 29870] = ≥ 10%
• O=C(O)CC1NCc2cc3ccccc3nc21 (stereo not drawn) [Compound 141566] = ≥ 10%

* * *

- measured.on: HCPTP (Homo sapiens, UniProt P24666)
- assay.notes: pNPP single concentration screen, isoform not specified
- Type: biochemical
- condition.description: pH 5, read-out: elevation of the activity of HCPTP
Each item that follows carries a reported activation at 100 µM.
observation.type: activation at 100 µM

• NC(Cc1cc(Br)c(O)c(Br)c1)C(=O)O (stereo not shown) = ≥ 10%
• NC(Cc1c[nH]c2cc([N+](=O)[O-])ccc12)C(=O)O (stereo not shown) = ≥ 10%
• CC(=O)Nc1ccc(-c2ccc3[nH]c(=O)cc(C)c3c2)cc1 = ≥ 10%
• Oc1cc(O)c2c(c1)OC(c1ccc(O)c(O)c1)C(O)C2c1c(O)cc(O)c2c1OC(c1ccc(O)c(O)c1)C(O)C2 (stereo not shown) = ≥ 10%

* * *

- measured.on: HCPTP-A (Homo sapiens)
- assay.notes: pNPP phosphatase inhibition assay, HCPTP-A
- Format: biochemical
- condition.description: IC50 HCPTP-A pH 7 (dash class), pH 7 (Table II), dash entries
observation.type: IC50

- NC(Cc1ccccc1)P(=O)(O)O (stereo not shown) [Compound 30080]: > 100 µM
